Molecular target: recombinant DYRK1A kinase (Homo sapiens (Human))
Assay: DYRK1A kinase assay (Ser/Thr 18 peptide Z-lyte FRET assay)
Conditions: DYRK1A kinase activity; 15 μM ATP, 1 h room temperature; method text calls the value IC50
Protocol: Representative compounds were screened using the assay procedure for DYRK1A kinase activity as described below. Each compound was dissolved in DMSO as a 10 mM stock and used to prepare compound source plates. […] The Emission ratio (Em) was calculated as a ratio of the coumarin (C) emission signal (at 445 nm)/Fluorescein (F) emission signal (at 520 nm). The percent phosphorylation was then calculated using the following formula: [1−((Em ratio×F100%)−C100%)/((C0%−C100%)+(Em ratio×(F100%−F0%)))]. […]
Rule: EC50 below 20 nM gives class 1, anything at or above gives class 0.

// query # TODO verify EC50 < 20 nM strictly for this molecule: CN1CCN(c2ncnc3ccc(-c4c[nH]c5nc(N)ncc45)cc23)CC1 [Compound 1986]
// result class 0

// query Also CN1CCC(Nc2ncc3c(-c4ccn5nccc5n4)c[nH]c3n2)CC1 [Compound 1667] ?
// result class 1

// query Also CN1CCC(NC(=O)c2cnn3ccc(-c4c[nH]c5nc(NCC(C)(C)C)ncc45)cc23)CC1 [Compound 1516] ?
// result class 1

// query Also CO[C@H]1CC[C@@H](Nc2ncc3c(-c4cc(F)c5nccn5c4)c[nH]c3n2)CC1 [Compound 216] ?
// result class 1

====

Molecular target: recombinant DYRK1A kinase (Homo sapiens (Human))
Assay: DYRK1A kinase assay (Ser/Thr 18 peptide Z-lyte FRET assay)
Conditions: DYRK1A kinase activity; 15 μM ATP, 1 h room temperature; method text calls the value IC50
MEASURED QUANTITY: EC50 (nM)
Quick note: give the figure in nM, leave out the unit.

// query Give the measured EC50 of CC(C)Oc1nc(N[C@H]2CC[C@@](C)(O)CC2)nc2[nH]cc(-c3ccn4nccc4c3)c12 [Compound 2220] .
// result 66.1

// query Also CC(C)(F)CNc1ncc2c(-c3ccn4ncc(F)c4n3)c[nH]c2n1 ?
// result 21.1

// query Also CN1CCC(Oc2cnc3ccc(-c4c[nH]c5nc(N)ncc45)cc3n2)CC1 ?
// result 13.8

// query Also COc1nc(N[C@H]2CC[C@@H](OC(F)F)CC2)nc2[nH]cc(-c3ccn4nccc4c3)c12 ?
// result 126

// query Also c1cc2cc(-c3c[nH]c4nc(C5CC5)ncc34)ccn2n1 ?
// result 24.9

// query Also COc1nc(N[C@H]2CC[C@@](C)(O)CC2)nc2[nH]cc(-c3ccc4nnn(C)c4c3)c12 ?
// result 4.2

====

Target: recombinant DYRK1A kinase (Homo sapiens (Human))
Test: DYRK1A kinase assay (Ser/Thr 18 peptide Z-lyte FRET assay)
Conditions: DYRK1A kinase activity; 15 μM ATP, 1 h room temperature; method text calls the value IC50
Field: pEC50. Provide a value for each of the compounds that follow.
In plain terms, pEC50 is the concentration in mol/L turned into minus its base-10 logarithm.

// query Give the measured pEC50 of COc1nc(NC2[C@H]3COC[C@@H]23)nc2[nH]cc(-c3ccn4nccc4c3)c12 (stereo partly shown) .
// result 9.05

// query Also Cc1nc2ncc(-c3c[nH]c4nc(NCC(C)C)ncc34)cc2n1C(C)C ?
// result 8.25

// query Also Fc1cc(-c2c[nH]c3nc(NCCC(F)(F)F)ncc23)cn2ccnc12 ?
// result 8.18

// query Also COc1nc(N[C@@H]2CCOC[C@@H]2F)nc2[nH]cc(-c3ccn4nccc4c3)c12 ?
// result 6.97

====

Target: recombinant DYRK1A kinase (Homo sapiens (Human))
Assay: DYRK1A kinase assay (Ser/Thr 18 peptide Z-lyte FRET assay)
Details: DYRK1A kinase activity; 15 μM ATP, 1 h room temperature; method text calls the value IC50
MEASURED QUANTITY: pEC50
In plain terms, pEC50 is the concentration in mol/L turned into minus its base-10 logarithm.

// query Give the measured pEC50 of COc1nc(NC2CCC(F)(F)CC2)nc2[nH]cc(-c3cc(F)c4nccn4c3)c12 [Compound 2185] .
// result 7.09

// query Also COc1nc(N[C@H]2CC[C@@H](OC(F)F)CC2)nc2[nH]cc(-c3ccc4nnn(C)c4c3)c12 [Compound 2287] ?
// result 6.62

// query Also CN1CCN(c2ccc(Nc3ncc4c(-c5ccc6ncccc6c5)c[nH]c4n3)cn2)CC1 [Compound 1894] ?
// result 8.64

// query Also c1cn2cc(-c3c[nH]c4nc(C5CCC5)ncc34)ccc2n1 [Compound 103] ?
// result 7.66

// query Also FC1(F)CCC(Nc2ncc3c(-c4ccc5ncnn5c4)c[nH]c3n2)CC1 [Compound 746] ?
// result 7.53

// query Also COC[C@H](C)Nc1ncc2c(-c3cc(F)c4nccn4c3)c[nH]c2n1 [Compound 205] ?
// result 8.28

// query Also CC(C)(F)CNc1ncc2c(-c3ccc4ncccc4c3)c[nH]c2n1 [Compound 1869] ?
// result 8.40

// query Also Cc1nc2cc(F)c(-c3c[nH]c4nc(C5CC5)ncc34)cc2n1C(C)C [Compound 539] ?
// result 7.39

// query Also FC(F)CO[C@H]1CC[C@@H](Nc2ncc3c(-c4ccn5nccc5c4)c[nH]c3n2)CC1 [Compound 2201] ?
// result 8.30

// query Also Cc1nc2c(F)cc(-c3c[nH]c4nc(NCC5(F)CCCCC5)ncc34)cc2n1C(C)C [Compound 526] ?
// result 8.07

// query Also COc1nc(N[C@H]2CC[C@@H](OCCO)CC2)nc2[nH]cc(-c3ccn4nccc4c3)c12 [Compound 2213] ?
// result 7.14

// query Also COc1nc(NCC(C)(C)F)nc2[nH]cc(-c3ccc4nccn4c3)c12 [Compound 2240] ?
// result 8.10

// query Also FC1(F)CCC(Nc2ncc3c(-c4ccn5nccc5n4)c[nH]c3n2)CC1 [Compound 1663] ?
// result 8.04

// query Also COc1nc(NC2CCC3(CC2)COC3)nc2[nH]cc(-c3ccc4nnn(C)c4c3)c12 [Compound 3133] ?
// result 8.96

// query Also COc1nc(N[C@@H]2CCOC[C@H]2OC)nc2[nH]cc(-c3ccn4nccc4c3)c12 [Compound 2319] ?
// result 6.54

// query Also CN1CCC(Nc2ncc3c(-c4ccn5ncc(C(=O)N6CCCCC6)c5c4)c[nH]c3n2)CC1 [Compound 1233] ?
// result 7.74

// query Also CN1CCN(c2cccc(Nc3ncc4c(-c5ccc6ncccc6c5)c[nH]c4n3)c2)CC1 [Compound 1891] ?
// result 8.39

// query Also CC(F)(F)CNc1ncc2c(-c3ccn4nccc4n3)c[nH]c2n1 [Compound 1649] ?
// result 8.23

// query Also COc1nc(NC2CCC(F)(F)CC2)nc2[nH]cc(-c3ccc4nccnc4c3)c12 [Compound 2230] ?
// result 8.35

// query Also FC(F)(CNc1ncc2c(-c3ccc4ncnn4c3)c[nH]c2n1)C1CC1 [Compound 743] ?
// result 8.72

// query Also FC(F)(F)CNc1ncc2c(-c3ccc4ncnn4c3)c[nH]c2n1 [Compound 733] ?
// result 7.64

// query Also C[C@@H](Nc1ncc2c(-c3ccn4nccc4c3)c[nH]c2n1)C(F)(F)F [Compound 1128] ?
// result 8.62

// query Also FC(F)O[C@H]1CC[C@H](Nc2ncc3c(-c4ccn5nccc5n4)c[nH]c3n2)CC1 [Compound 3421] ?
// result 7.55

// query Also CCn1nnc2ccc(-c3c[nH]c4nc(NCC(C)(C)F)ncc34)cc21 [Compound 865] ?
// result 8.14

// query Also FC(F)CO[C@H]1CC[C@@H](Nc2ncc3c(-c4ccn5nccc5n4)c[nH]c3n2)CC1 [Compound 2222] ?
// result 8.24

// query Also CCOc1nc(N[C@H]2CC[C@@H](O)CC2)nc2[nH]cc(-c3ccn4nccc4c3)c12 [Compound 2219] ?
// result 8.46

// query Also CN1CCN(c2ccc(Nc3ncc4c(-c5cc6cnccc6s5)c[nH]c4n3)cn2)CC1 [Compound 93] ?
// result 8.19

// query Also CC(C)(F)CNC(=O)c1cnn2ccc(-c3c[nH]c4nc(C5CC5)ncc34)cc12 [Compound 1292] ?
// result 8.64

====

Target: recombinant DYRK1A kinase (Homo sapiens (Human), UniProt Q13627)
Assay: DYRK1A kinase assay (Ser/Thr 18 peptide Z-lyte FRET assay)
Details: DYRK1A kinase activity; 15 μM ATP, 1 h room temperature; method text calls the value IC50
MEASURED QUANTITY: EC50 (nM)
Quick note: give the figure in nM, leave out the unit.

// query Give the measured EC50 of COc1nc(N[C@@H]2[C@@H]3COC[C@@H]32)nc2[nH]cc(-c3ccc4nnn(C)c4c3)c12 [Compound 3127] .
// result 1.4

// query Also CN1CCN(c2ccc(CNc3ncc4c(-c5ccc6ncncc6c5)c[nH]c4n3)cn2)CC1 ?
// result 2.9

// query Also [2H]C([2H])([2H])O[C@H]1CC[C@@H](Nc2ncc3c(-c4ccc5nnn(C)c5c4)c[nH]c3n2)CC1 ?
// result 5
